Attribution: the CheMixHub drug solubility set

assay: xn = mol fraction of the nth substance listed, in the solute-free solvent; conditions: 293.15 K; x2 = 0.4
# cutoff 6 applies to solubility (g/100 g solution); >= gives label 1, < gives label 0

- molecule: "CC(=O)OC(c1ccccc1)C(Cl)(Cl)Cl (stereo not given) + CCO + O"
  classAssignment: "label 0"
- molecule: "O=C1CCc2ccc(OCCCCN3CCN(c4cccc(Cl)c4Cl)CC3)cc2N1 + CCC(C)=O + CCCO"
  classAssignment: "label 0"
- molecule: "CC(=O)OC(c1ccccc1)C(Cl)(Cl)Cl (stereo not given) + CC(=O)O + O"
  classAssignment: "label 0"

Request: Reported solubility (g/100 g solution) at or above 6? CCCCOc1ccc(C(=O)CCN2CCCCC2)cc1.Cl + CCO + O
Response: label 1

Request: Another: O=C(O)C1CSCN1 (stereo not given) + O + CC#N
Response: label 0

Request: Another: COC1=CC(=O)CC(C)C12Oc1c(Cl)c(OC)cc(OC)c1C2=O (stereo not given) + CC(=O)CC(C)C + CC(C)O
Response: label 0

Request: Another: CCCCOc1ccc(C(=O)CCN2CCCCC2)cc1.Cl + CCO + CCCCCC
Response: label 1

Request: Another: COC1=CC(=O)CC(C)C12Oc1c(Cl)c(OC)cc(OC)c1C2=O (stereo not given) + CC(C)=O + CC(C)O
Response: label 0

Request: Another: CCCCOc1ccc(C(=O)CCN2CCCCC2)cc1.Cl + CCO + CCOC(C)=O
Response: label 1

Request: Another: O=C1CCc2ccc(OCCCCN3CCN(c4cccc(Cl)c4Cl)CC3)cc2N1 + CCC(C)=O + CCOC(C)=O
Response: label 0

Request: Another: CCCCOc1ccc(C(=O)CCN2CCCCC2)cc1.Cl + CO + C1CCOC1
Response: label 1

Request: Another: O=C(O)c1ccc(C(=O)O)o1 + C1CCOC1 + O
Response: label 1

Request: Another: O=C1CCc2ccc(OCCCCN3CCN(c4cccc(Cl)c4Cl)CC3)cc2N1 + CCC(C)=O + CC(C)=O
Response: label 0

Request: Another: CC(=O)OC(c1ccccc1)C(Cl)(Cl)Cl (stereo not given) + CC(C)O + O
Response: label 0

Request: Another: COC1=CC(=O)CC(C)C12Oc1c(Cl)c(OC)cc(OC)c1C2=O (stereo not given) + CCC(C)=O + CC(C)O
Response: label 0

* * *

assay: xn = mol fraction of the nth substance listed, in the solute-free solvent; settings: 318.15 K; x2 = 0.2
Measured solubility (g/100 g solution) accompanies every entry in the list below.
Please respond with just the number, no unit label.

Request: Look at this compound and give its reported solubility (g/100 g solution). O=C(O)c1ccc(C(=O)O)o1 + O + COCCOCCOC
Response: 2.34

Request: Another: COC1=CC(=O)CC(C)C12Oc1c(Cl)c(OC)cc(OC)c1C2=O (centres undefined) + CC(=O)CC(C)C + CC(C)O
Response: 0.852

Request: Another: CCCCOc1ccc(C(=O)CCN2CCCCC2)cc1.Cl + CCO + O
Response: 61.1

Request: Another: O=C1CCc2ccc(OCCCCN3CCN(c4cccc(Cl)c4Cl)CC3)cc2N1 + CCC(C)=O + CCOC(C)=O
Response: 2.98
